Would you kindly list TGI for each of these compounds?
Tested on: SK-MEL-5 melanoma
assayInfo: NCI tumour cell line growth inhibition, 48 h
Numbers only, in µM.

// known answers, use as guide
compound: COC12C=C/C(=C(/C(=O)OCc3ccccn3)C(=O)CCCCCCCCC3(OC)C=C/C(=C(/C(=O)OCc4ccccn4)C(=O)CCCCCCCC1)O3)O2
targetOrSystem: SK-MEL-5 melanoma
TGI (µM): 0.492
//
compound: C=C1CC(Cn2ccc(=O)[nH]c2=O)(c2ccc(Cl)cc2)OC1=O (stereo unspecified)
targetOrSystem: SK-MEL-5 melanoma
TGI (µM): 10.8
//
compound: CC(=O)Oc1c(-c2ccccc2)sc2ccccc12
targetOrSystem: SK-MEL-5 melanoma
TGI (µM): 44.5
//
compound: CCCCCCCCCCCCCCC(O)C[N+](C)(CCO)CCO (stereo unspecified)
targetOrSystem: SK-MEL-5 melanoma
TGI (µM): 16.9
//
compound: COc1cc(OC)c2c3c(OC)cc(OC)c4c(=O)c(O)c(C[C@@H](C)O)c(c5c(C[C@@H](C)O)c(O)c(=O)c1c25)c43
targetOrSystem: SK-MEL-5 melanoma
TGI (µM): 28.4

Could I get TGI for every one of these entries?
1. Cc1cc(S(=O)(=O)Nc2nc3ccccc3nc2-c2ccc(Cl)cc2)c(S)cc1Cl
2. O=C(/C=C\c1ccc([N+](=O)[O-])cc1)c1ccccc(=O)c1O
3. COc1ccc(Cc2coc3ccccc3c2=O)cc1OC
4. CCOC(=O)C(NC(=O)c1ccccc1)(N1CCN(c2cc3c(cc2F)c(=O)c(C(=O)O)cn3CC)CC1)C(F)(F)F (stereo unspecified)
5. Cc1cccc(N2C(=O)C3c4[nH]c5ccccc5c4C4CCC(C(C)(C)C)CC4C3C2=O)c1 (stereo unspecified)

OUTPUT:
27
2.38
67.8
65.7
28.4

* * *

Test system: SNB-75 CNS
assayInfo: NCI tumour cell line growth inhibition, 48 h
Would you kindly list TGI for each of these compounds?

// known answers, use as guide
compound: CCOC(=O)C(NC(=O)c1ccccc1)(N1CCN(c2cc3c(cc2F)c(=O)c(C(=O)O)cn3CC)CC1)C(F)(F)F (stereo not given)
recordedMeasurement: 90 µM
//
compound: O=C(NC(=O)c1cc(-c2ccccc2)n[nH]1)c1ccccc1
recordedMeasurement: > 100 µM
//
compound: O=S(=O)(O)c1cc(O)c(N=Nc2ccc(O)cc2O)c2ccccc12
recordedMeasurement: > 100 µM

Could I get TGI for every one of these entries?
1. CCOC(=O)C(Cc1c[nH]c2cc([N+](=O)[O-])ccc12)NS(=O)(=O)c1ccc2ccccc2c1 (stereo not given)
2. CC(C)(C)c1ccc(Oc2ccc(N)cn2)cc1

OUTPUT:
["50.4 µM", "> 100 µM"]

* * *

Would you kindly list TGI for each of these molecules?
Test system: HCC-2998 colon
assayInfo: NCI tumour cell line growth inhibition, 48 h

molecule: COc1cccc(CC(C)=C(c2ccc(OCCN3CCCCC3)cc2)c2ccc(OCCN3CCCCC3)cc2)c1
TGI: 3.72 µM
//
molecule: CCCCCCCCCCCC[C@@H](O)[C@H]1CCC([C@H](O)CCCCC(=O)CCCCCCCC2=C[C@H](C)OC2=O)O1 (some centres not stated)
TGI: > 50 µM
//
molecule: O=C(O)[C@H](NS(=O)(=O)c1ccc(F)cc1)c1ccccc1
TGI: > 100 µM

Could I get TGI for every one of these entries?
1. NNC(=S)NCCNC(=S)NN
2. CC(=O)c1c2c(cc3c1CC1(C3)Cc3cc4c(c(C(C)=O)c3C1)CCC4)CCC2
3. C/C=C1\CN(C(=O)OC(C)(C)C)C1C(=O)OC(C)(C)C (configuration not stated)
4. Cn1c(CO)ccc1-c1ccc(-c2ccc[se]2)[se]1
5. CC1CC[P+](c2ccccc2)(c2ccccc2)c2c1ccc1ccccc21 (configuration not stated)
6. O=S(=O)(NNc1ccccc1)c1ccccc1

OUTPUT:
> 100 µM
> 100 µM
> 100 µM
> 47.7 µM
41.9 µM
> 100 µM

Could I get TGI for every one of these entries?
1. COC(=O)C1Cc2c(n(C)c3ccccc23)C(CCC(=O)O)N1Cc1ccccc1 (configuration not stated)
2. C[CH2][Ge]([CH2]C)([CH2]C)[O]C(=O)C(OC(C)=O)c1ccccc1 (configuration not stated)

OUTPUT:
["> 100 µM", "> 100 µM"]

* * *

Would you kindly list TGI for each of these molecules?
Tested on: DU-145 prostate
assayInfo: NCI tumour cell line growth inhibition, 48 h

// known answers, use as guide
molecule: Cn1cc(-c2ccc3cc(-c4ccc(CC(=O)Nc5cc(C(C)(C)C)on5)cc4)cnc3c2)cn1
recordedMeasurement: 10.2 µM
--
molecule: COc1cc(OC)c2c3c(OC)cc(OC)c4c(=O)c(O)c(C[C@@H](C)O)c(c5c(C[C@@H](C)O)c(O)c(=O)c1c25)c43
recordedMeasurement: > 100 µM
--
molecule: Cc1ccc(C(=O)Nc2ccc(CP(=O)(O)O)cc2CP(=O)(O)O)cc1NC(=O)Nc1cc(C(=O)Nc2ccc(CP(=O)(O)O)cc2CP(=O)(O)O)ccc1C
recordedMeasurement: > 100 µM
--
molecule: O=C(O)c1cnc(-n2[nH]c3c(c2=O)CCCC3)[nH]c1=O
recordedMeasurement: > 100 µM
--
molecule: O=C(CCC=C(S(=O)(=O)c1ccccc1)S(=O)(=O)c1ccccc1)c1ccccc1
recordedMeasurement: 25.4 µM
--
molecule: COc1cc2c3c(n(C)c(=O)c2cc1OC)-c1cc2c(cc1/C3=C\CCCI)OCO2
recordedMeasurement: > 100 µM
--
molecule: CC1CC/C(=C\c2ccc(F)cc2)C(=O)/C1=C/c1ccc(F)cc1 (centres undefined)
recordedMeasurement: 17.1 µM
--
molecule: O=c1[nH]cc(Cl)c(=O)[nH]1
recordedMeasurement: > 100 µM
--
molecule: Cc1cc2c(cc1Cl)S/C(=C/C(=O)O)C(Nc1ccc3ncsc3c1)=NS2(=O)=O
recordedMeasurement: > 97.3 µM
--
molecule: COc1c(-c2nc3nc(N4CCN(C)CC4)ccc3[nH]2)cc(OC)c2c1nc(COC(C)=O)n2C
recordedMeasurement: > 100 µM

Could I get TGI for every one of these entries?
1. O=C(/C=C\c1ccc([N+](=O)[O-])cc1)c1ccccc(=O)c1O
2. S=c1[nH]n2c(CCCCCCCCc3nnc4sc(=S)[nH]n34)nnc2s1
3. N=c1c2c(=S)n(-c3ccccc3)c(=S)n(-c3ccccc3)c2nc(SCCN2CCCC2)n1-c1ccccc1
4. O=C1CC(c2cccc(F)c2)Nc2cc3c(cc21)OCO3 (centres undefined)

OUTPUT:
1. 9.44 µM
2. > 100 µM
3. 3.29 µM
4. > 100 µM

Could I get TGI for every one of these entries?
1. COCc1c(-c2cc3cc(C)cc(OC)c3s2)c2c(N)ncnn2c1CN1CCNC(=O)C1
2. Cc1cc(S(=O)(=O)Nc2nc3ccccc3nc2-c2ccc(Cl)cc2)c(S)cc1Cl
3. O=S(=O)(NNc1ccccc1)c1ccccc1
4. COc1ccc(Cc2coc3ccccc3c2=O)cc1OC
5. OCCN(/N=C\c1ccc2ccccc2c1)C1=NCCN1

OUTPUT:
1: > 100 µM; 2: 29.9 µM; 3: 34.3 µM; 4: > 100 µM; 5: > 100 µM

* * *

Tested on: OVCAR-5 ovarian
assayInfo: NCI tumour cell line growth inhibition, 48 h; in the data active = GI50 below about 0.43 µM; inactive = the rest
Your answer must be one of the following: active, inactive

Record excerpt, results attached:
molecule: CNC(=O)c1c(NC(=O)c2ccc(C(C)(C)C)cc2)sc2c(CN(C)C)c(O)ccc12
groupLabel: inactive
--
molecule: COc1cc(OC)cc(-c2n/c(=C\c3c(O)[nH]c4ccc(OC)cc34)cc3c2=Nc2ccccc2-3)c1
groupLabel: inactive
--
molecule: CC1=C2[C@@H](CC1)[C@]1(C)O[C@@](C(C)C)(C[C@H]1OC(=O)CO)[C@H]2OC(=O)C1CC1c1ccccc1 (some centres undefined)
groupLabel: inactive
--
molecule: Cn1cc(-c2ccc3cc(-c4ccc(CC(=O)Nc5cc(C(C)(C)C)on5)cc4)cnc3c2)cn1
groupLabel: inactive
--
molecule: Cc1cc2c(cc1Cl)S/C(=C/C(=O)O)C(Nc1ccc3ncsc3c1)=NS2(=O)=O
groupLabel: inactive

INPUT: Hello, I am checking results. What call was entered for CC(C)(C)c1ccc(Oc2ccc(N)cn2)cc1 ?
OUTPUT: inactive

INPUT: Hello, I am checking results. What call was entered for COc1cccc(CC(C)=C(c2ccc(OCCN3CCCCC3)cc2)c2ccc(OCCN3CCCCC3)cc2)c1 ?
OUTPUT: inactive

INPUT: Hello, I am checking results. What call was entered for O=C(Nc1cccc(O)c1)c1ccc(NC2=C(Cl)C(=O)N(Cc3ccc(Cl)cc3Cl)C2=O)cc1 ?
OUTPUT: inactive

INPUT: Hello, I am checking results. What call was entered for COc1ccc(/C(COc2ccc3oc(-c4ccccc4)cc(=O)c3c2)=N\O)cc1 ?
OUTPUT: active

This collection of values is drawn from PubChem BioAssay (NCI).
